Values compiled from patent US11053218B2.

Form field: DC50 (one value per entry).
- experimental_target: IKZF1 (Homo sapiens, UniProt Q13422+Q96SW2)
- Sequence (Q13422 whole entry): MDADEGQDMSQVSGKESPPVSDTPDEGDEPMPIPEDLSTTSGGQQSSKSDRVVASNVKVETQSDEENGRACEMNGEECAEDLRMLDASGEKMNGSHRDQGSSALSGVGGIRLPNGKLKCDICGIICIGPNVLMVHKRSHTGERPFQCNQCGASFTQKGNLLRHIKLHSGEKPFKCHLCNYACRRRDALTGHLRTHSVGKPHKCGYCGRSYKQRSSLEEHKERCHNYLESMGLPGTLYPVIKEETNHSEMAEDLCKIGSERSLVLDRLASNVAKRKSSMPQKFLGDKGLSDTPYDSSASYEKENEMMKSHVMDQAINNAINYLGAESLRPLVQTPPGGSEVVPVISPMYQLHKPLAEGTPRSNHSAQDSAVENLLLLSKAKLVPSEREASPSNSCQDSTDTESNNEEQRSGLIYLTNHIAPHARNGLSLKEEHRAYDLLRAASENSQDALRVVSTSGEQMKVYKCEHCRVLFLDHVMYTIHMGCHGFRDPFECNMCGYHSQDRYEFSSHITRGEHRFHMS
- Sequence (Q96SW2 whole entry): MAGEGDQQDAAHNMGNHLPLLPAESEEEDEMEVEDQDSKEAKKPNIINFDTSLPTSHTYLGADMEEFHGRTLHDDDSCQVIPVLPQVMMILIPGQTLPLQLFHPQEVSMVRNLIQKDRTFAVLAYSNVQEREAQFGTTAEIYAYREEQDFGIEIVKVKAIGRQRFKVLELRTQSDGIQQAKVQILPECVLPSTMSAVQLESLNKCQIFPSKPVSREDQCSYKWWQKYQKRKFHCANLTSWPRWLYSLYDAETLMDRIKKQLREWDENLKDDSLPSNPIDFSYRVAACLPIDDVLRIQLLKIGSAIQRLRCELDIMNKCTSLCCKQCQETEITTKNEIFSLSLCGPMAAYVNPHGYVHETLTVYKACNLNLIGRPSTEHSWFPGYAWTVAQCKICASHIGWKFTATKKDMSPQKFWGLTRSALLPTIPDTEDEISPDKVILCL
- Sequence (Q16531 whole entry partner): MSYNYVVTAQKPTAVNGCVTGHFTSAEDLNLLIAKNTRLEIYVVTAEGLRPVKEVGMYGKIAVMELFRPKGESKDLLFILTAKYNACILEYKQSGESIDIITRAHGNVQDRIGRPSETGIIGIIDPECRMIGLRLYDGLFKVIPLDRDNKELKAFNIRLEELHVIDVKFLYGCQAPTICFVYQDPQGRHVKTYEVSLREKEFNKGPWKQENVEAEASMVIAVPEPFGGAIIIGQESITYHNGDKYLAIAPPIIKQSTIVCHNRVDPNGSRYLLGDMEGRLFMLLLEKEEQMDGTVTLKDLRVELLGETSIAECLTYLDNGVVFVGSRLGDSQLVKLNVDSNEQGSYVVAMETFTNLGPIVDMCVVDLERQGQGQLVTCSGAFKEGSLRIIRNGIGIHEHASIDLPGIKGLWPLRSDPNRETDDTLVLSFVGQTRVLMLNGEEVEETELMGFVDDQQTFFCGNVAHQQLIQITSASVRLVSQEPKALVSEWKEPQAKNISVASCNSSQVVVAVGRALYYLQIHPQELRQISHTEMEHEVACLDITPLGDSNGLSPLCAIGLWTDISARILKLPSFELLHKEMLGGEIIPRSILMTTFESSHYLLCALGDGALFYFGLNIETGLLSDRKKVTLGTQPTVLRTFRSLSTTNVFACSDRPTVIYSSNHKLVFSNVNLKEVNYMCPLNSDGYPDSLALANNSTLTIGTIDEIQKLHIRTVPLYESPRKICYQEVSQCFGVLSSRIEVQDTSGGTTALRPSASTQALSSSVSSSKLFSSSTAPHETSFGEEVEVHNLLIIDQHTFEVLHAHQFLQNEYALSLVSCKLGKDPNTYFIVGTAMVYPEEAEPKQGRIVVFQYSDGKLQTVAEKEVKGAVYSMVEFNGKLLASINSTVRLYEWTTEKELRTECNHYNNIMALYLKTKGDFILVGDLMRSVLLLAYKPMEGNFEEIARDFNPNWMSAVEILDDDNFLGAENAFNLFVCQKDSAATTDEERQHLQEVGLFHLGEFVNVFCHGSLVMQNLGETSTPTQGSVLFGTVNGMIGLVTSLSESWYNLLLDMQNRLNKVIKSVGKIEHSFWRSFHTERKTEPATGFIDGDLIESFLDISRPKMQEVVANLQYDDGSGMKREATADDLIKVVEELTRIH
- assay_name: Prolabel quantification of IKZF1 protein levels in 293GT cells
- Type: cell-based
- assay_setup: Prolabel assay, read-out: IKZF1 EC50

Some solved entries appear below for comparison.
INSERT INTO measurements (compound, result) VALUES
  ('O=C1CCC(N2Cc3cc(C4CCN(Cc5ccccc5)C4)ccc3C2=O)C(=O)N1 (stereo not shown)', '> 30 µM'),
  ('O=C1CCC(N2Cc3cc(C4CCN(Cc5ccc(C(F)(F)F)cn5)CC4)ccc3C2=O)C(=O)N1 (stereo not shown)', '> 30 µM'),
  ('O=C1CCC(N2Cc3cc(C4CCN(c5ccccc5)CC4)ccc3C2=O)C(=O)N1 (stereo not shown)', '> 50 µM');

From here, focus on the item given below.
Lab note: O=C1CCC(N2Cc3cc(C4CCN(Cc5cc(C6CC6)[nH]n5)CC4)ccc3C2=O)C(=O)N1 (stereo not shown) gave DC50 of > 30 µM
